% binding of the fluorescently labeled mAb (IgG pre-incubation = 100) values, listed per item
Molecular target: T1, human CD103 (integrin Alpha-E) / human integrin Beta-7 heterodimer on cells (human, UniProt P38570 19-1179; P26010 20-798)
T1 construct: the assay field tells which cells; also called hCD103/hBeta7; CHO.K1-hCD103/hBeta7
T1 sequence (P38570 19-1179 limits assumed, chain 1 of 2): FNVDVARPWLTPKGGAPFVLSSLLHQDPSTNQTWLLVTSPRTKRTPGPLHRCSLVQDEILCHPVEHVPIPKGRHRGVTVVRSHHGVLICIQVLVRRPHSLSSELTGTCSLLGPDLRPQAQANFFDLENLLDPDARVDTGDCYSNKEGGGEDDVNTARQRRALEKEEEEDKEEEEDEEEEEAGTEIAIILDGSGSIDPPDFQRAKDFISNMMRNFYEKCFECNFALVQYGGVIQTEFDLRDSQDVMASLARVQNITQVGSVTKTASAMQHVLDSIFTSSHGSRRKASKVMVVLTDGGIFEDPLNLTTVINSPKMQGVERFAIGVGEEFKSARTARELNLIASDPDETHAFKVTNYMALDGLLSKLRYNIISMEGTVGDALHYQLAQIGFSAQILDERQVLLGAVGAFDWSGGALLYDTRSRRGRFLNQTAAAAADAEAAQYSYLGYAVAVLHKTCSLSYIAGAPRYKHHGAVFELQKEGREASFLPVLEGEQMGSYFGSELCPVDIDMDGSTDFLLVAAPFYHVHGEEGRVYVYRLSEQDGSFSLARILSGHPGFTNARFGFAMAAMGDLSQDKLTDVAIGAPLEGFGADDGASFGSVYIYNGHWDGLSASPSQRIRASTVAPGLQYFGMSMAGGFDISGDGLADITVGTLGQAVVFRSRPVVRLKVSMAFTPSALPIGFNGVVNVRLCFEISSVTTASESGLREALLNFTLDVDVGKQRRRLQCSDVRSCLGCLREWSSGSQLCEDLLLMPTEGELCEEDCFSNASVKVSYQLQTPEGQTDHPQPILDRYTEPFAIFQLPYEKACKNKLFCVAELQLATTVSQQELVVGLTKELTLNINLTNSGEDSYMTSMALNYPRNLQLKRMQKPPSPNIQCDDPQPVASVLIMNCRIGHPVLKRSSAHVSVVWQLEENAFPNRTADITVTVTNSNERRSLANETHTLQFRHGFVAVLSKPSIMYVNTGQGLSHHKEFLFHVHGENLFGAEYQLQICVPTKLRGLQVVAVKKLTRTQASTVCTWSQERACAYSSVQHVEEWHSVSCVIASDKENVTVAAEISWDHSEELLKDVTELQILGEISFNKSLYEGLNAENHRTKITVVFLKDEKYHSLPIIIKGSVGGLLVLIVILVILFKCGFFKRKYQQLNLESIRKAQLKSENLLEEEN
T1 sequence (P26010 20-798 limits assumed, chain 2 of 2): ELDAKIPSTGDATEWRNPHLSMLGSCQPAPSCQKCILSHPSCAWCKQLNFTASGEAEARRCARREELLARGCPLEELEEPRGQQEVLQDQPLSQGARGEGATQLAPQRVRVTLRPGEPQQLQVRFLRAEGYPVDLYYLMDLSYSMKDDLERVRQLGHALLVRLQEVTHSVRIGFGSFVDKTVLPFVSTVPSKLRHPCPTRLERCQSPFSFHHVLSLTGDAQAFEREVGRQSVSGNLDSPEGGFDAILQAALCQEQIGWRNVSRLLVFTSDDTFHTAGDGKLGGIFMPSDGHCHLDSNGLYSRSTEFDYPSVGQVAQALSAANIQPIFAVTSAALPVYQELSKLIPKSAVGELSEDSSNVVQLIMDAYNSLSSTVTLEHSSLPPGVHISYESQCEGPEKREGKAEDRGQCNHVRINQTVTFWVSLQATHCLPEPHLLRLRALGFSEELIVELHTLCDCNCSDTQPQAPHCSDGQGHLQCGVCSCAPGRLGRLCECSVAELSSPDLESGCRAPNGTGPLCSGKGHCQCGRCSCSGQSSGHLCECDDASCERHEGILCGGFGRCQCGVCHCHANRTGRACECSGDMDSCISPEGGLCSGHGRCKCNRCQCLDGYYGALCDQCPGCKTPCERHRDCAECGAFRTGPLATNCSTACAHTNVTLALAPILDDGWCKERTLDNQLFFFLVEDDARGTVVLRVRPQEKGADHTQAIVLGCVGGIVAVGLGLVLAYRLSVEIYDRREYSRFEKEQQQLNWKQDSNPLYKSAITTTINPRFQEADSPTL
Test: flow cytometry competition on CD103+CD8+ T cells; pre-incubation with unlabeled 06A; table n=2
Reply with just the number (in %).

Some solved cases for reference:
Binder	Endpoint unit	Experimental value
hCD103.01A (antibody, V domains shown, Also tested labelled with AF647, conjugated with Df and labelled with 89Zr; these are written under this molecule; also called clone 01A; hCD103.01 mAb) VH: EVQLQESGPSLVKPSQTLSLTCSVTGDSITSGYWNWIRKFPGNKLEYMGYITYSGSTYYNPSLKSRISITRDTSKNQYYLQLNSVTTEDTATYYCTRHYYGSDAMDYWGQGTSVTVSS VL: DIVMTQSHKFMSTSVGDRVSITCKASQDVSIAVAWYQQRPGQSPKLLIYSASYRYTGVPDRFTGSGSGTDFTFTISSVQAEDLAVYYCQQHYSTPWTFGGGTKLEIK	%	90.9
hCD103.06A (antibody, mouse IgG1, V domains shown, also called clone 06A; hCD103.06 mAb) VH: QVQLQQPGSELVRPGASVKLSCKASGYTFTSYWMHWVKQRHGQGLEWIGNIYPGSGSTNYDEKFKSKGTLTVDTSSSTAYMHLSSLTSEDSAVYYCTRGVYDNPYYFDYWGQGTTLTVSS VL: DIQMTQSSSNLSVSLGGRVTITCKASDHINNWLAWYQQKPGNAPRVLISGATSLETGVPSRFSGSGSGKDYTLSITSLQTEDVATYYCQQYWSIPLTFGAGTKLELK	%	18.9
hCD103.07A (antibody, mouse IgG1, V domains shown, also called clone 07A) VH: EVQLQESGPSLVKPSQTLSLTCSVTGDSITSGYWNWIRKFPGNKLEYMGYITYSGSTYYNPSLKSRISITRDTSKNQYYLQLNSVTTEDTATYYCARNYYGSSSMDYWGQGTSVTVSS VL: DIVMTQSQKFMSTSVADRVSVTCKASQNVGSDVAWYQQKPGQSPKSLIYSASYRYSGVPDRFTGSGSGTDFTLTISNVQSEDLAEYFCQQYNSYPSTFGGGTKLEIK	%	81.6

Let us examine a further case.
Measured % binding of the fluorescently labeled mAb (IgG pre-incubation = 100), hCD103.05A (antibody, mouse IgG1, V domains shown, Also tested labelled with AF647, conjugated with Df and labelled with 89Zr; these are written under this molecule; also called clone 05A; hCD103.05 mAb) VH: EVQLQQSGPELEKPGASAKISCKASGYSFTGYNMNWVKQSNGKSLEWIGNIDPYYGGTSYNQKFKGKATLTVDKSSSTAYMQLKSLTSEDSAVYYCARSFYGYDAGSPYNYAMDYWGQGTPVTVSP VL: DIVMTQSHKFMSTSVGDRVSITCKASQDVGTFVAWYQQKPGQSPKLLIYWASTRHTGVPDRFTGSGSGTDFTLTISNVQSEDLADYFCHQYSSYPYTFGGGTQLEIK : 87.4
